Provenance of the data: paper PMC11792023

target: PNPO (pyridoxine-5'-phosphate oxidase) (Homo sapiens, UniProt Q9NVS9)
Sequence (Q9NVS9 whole entry): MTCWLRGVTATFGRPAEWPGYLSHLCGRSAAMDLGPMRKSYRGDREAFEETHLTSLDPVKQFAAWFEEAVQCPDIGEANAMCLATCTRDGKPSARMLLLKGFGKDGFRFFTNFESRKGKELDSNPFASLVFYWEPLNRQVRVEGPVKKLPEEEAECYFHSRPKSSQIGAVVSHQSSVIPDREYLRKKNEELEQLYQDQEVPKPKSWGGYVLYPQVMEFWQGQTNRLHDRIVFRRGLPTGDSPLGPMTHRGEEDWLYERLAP

[
  {
    "MOLECULE": "CC1=NN(c2ccc(C)c(C)c2)C(=O)/C1=N\\Nc1cccc(-c2cccc(C(=O)O)c2)c1O [Eltrombopag]",
    "UNIT DESCRIPTOR": "µM",
    "Kd": 0.18
  }
]
